# System: MCF7 breast
# Assay remarks: NCI-60 one-dose screen, 48 h
# Settings: 10 µM unless noted
Compounds without any hit were thinned out: in the full panel of roughly 83,000, 20% have a hit. Calls of active or inactive are those of the source. Rule for the calls: active = growth percent below 10; inactive = the rest.
Possible outcomes: t = active, f = inactive

* COc1ccc2c(CCC(c3ccccc3)c3ccccc3)c3[n+](cc2c1OC)CCc1cc2c(cc1-3)OCO2 | t
* C=CC[n+]1c(/C=C2\Sc3ccccc3N2C)sc(-c2ccccc2)c1-c1ccccc1 | t
* COc1ccc(C2OC(c3cc(-c4cc5ccccc5o4)nn3-c3ccccc3)=NN2C(C)=O)cc1 (stereo unspecified) | f
* COC(=O)[C@]12CC[C@@H](C)[C@H](C)[C@@H]1C1=CC[C@@H]3[C@@]4(C)C[C@@H](OC(=O)/C=C/c5ccccc5)[C@H](O)[C@@](C)(CO)[C@@H]4[C@H](O)C[C@@]3(C)[C@]1(C)CC2 | f
* CCc1nc(C(N)=O)c(Nc2ccc(N3CCC(N4CCN(C)CC4)CC3)c(OC)c2)nc1NC1CCOCC1 | f
* COc1cc(-c2nc(C(=O)Nc3ccc(C)cc3)nn2-c2ccc(F)c(F)c2)cc(OC)c1OC | f

====

# Test system: NCI-H522 lung
# Assay remarks: NCI-60 one-dose screen, 48 h
# Settings: 10 µM unless noted
Compounds without any hit were thinned out: in the full panel of roughly 83,000, 20% have a hit. Calls of active or inactive are those of the source. Rule for the calls: active = growth percent below 10; inactive = the rest.
Possible outcomes: active, inactive

• N#Cc1c(-c2ccc(C(F)(F)F)cc2)c(F)c(NCCC2CCC(O)C2)n2c1nc1ccccc12 (configuration not stated) = inactive
• CNC(=O)c1cc(Oc2ccc(NC(=O)Nc3cc(C(C)(C)C)nn3-c3ccc4ncccc4c3)c(F)c2)ccn1 = active
• ClCc1ccc(-c2ccc(Cn3cnc4c(Cl)nc(Cl)nc43)cc2)cc1 = active
• CC/C(=C(/c1ccc(Cl)cc1)c1ccc(OCCN2CCCCC2)cc1)c1ccc(Cl)cc1 = inactive
• COC(=O)C1CCc2sc3ncnc(Nc4cn[nH]c4C(=O)Nc4ccc(CN5CCN(C)CC5)cc4)c3c21 (configuration not stated) = active
• N#CC1(C#N)C(c2cccs2)NC(c2cccs2)C1(C#N)C#N (configuration not stated) = inactive
• Cc1ccc(N)cc1CN1C(=O)c2ccccc2C1=O = inactive
• O=C1NC(=O)[C@@H](c2cn3c4c(cccc24)CCC3)[C@@H]1c1c[nH]c2ccccc12 = active
• N[C@@H]1CCCN(c2c(/C=C3\SC(=O)NC3=O)cccc2-c2ccccc2)C1 = inactive
• CC(C)c1ccc(/C=N/Nc2nc3ccccc3s2)cc1 = inactive
• CSc1nc2ncncc2[nH]1 = inactive
• CC(CCCC(=O)O)c1ccoc1 (configuration not stated) = inactive

====

# Tested on: SF-295 CNS
# Assay remarks: NCI-60 one-dose screen, 48 h
# Settings: 10 µM unless noted
Compounds without any hit were thinned out: in the full panel of roughly 83,000, 20% have a hit. Activity calls are given as the source filed them. Rule for the calls: active = growth percent below 10; inactive = the rest.
Possible outcomes: active, inactive

* Nc1nc(=S)c2ncn(C3OC(COC(=O)c4ccc(Cl)cc4)C(OC(=O)c4ccc(Cl)cc4)C3OC(=O)c3ccc(Cl)cc3)c2[nH]1 (stereo not given) | inactive
* Cc1ncc(-c2ccnc(Nc3ccc(S(C)(=O)=O)cc3)n2)n1C(C)C | active
* O=C(Nc1cnn2ccc(N3CCC[C@@H]3c3cc(F)ccc3F)nc12)N1CC[C@H](O)C1 | inactive
* NC1=Nc2cc(OCCCN3Cc4ccccc4C3)c(OCC3CC3)cc2C12CCCC2 | inactive
* Cc1c(N)ccc(-c2ccc(N)c(C)c2S(=O)(=O)O)c1S(=O)(=O)O | inactive

====

# System: EKVX NSCLC
# Assay remarks: NCI-60 one-dose screen, 48 h
# Settings: 10 µM unless noted
Compounds without any hit were thinned out: in the full panel of roughly 83,000, 20% have a hit. Activity calls are given as the source filed them. The calls were made as follows: active = growth percent below 10; inactive = the rest.
Possible outcomes: 1 = active, 0 = inactive

* Cc1ccc(-[n+]2c3cc(N)c(C)cc3nc3cc(C)c(Nc4ccccc4)cc32)cc1 | 1
* O=C1NC(=O)C(c2cnc3ccccn23)=C1c1cn2c3c(cc(F)cc13)CN(C(=O)N1CCCCC1)CC2 | 0
* Cc1nc2cc(-c3nn(C(C)C)c4ncnc(N)c34)ccc2o1 | 1
* N#Cc1cc2[nH]c3ccc(OC(F)(F)F)cc3c2oc1=O | 0
* Cc1cc(N(CCNc2ccnc3cc(Cl)ccc23)Cc2cccs2)nc(Cl)n1 | 0
* c1cc[n+](Cc2c3ccccc3cc3c2ccc2ccccc23)cc1 | 0
* C/C(=N\NC(=O)Cn1c(-c2ccc(S(C)(=O)=O)cc2)nc2ccccc21)c1ccc(Cl)cc1 | 0
* COc1cnc2c(c1)C(=O)c1c-2n(CCCn2ccnc2)c(=O)c2cc(Cl)ccc12 | 0
* CNC(=O)c1nn(C)c2c1C(C)(C)Cc1cnc(Nc3ccc(N4CCN(C)CC4)cc3)nc1-2 | 1
* Cc1cc(N2CCCC2)nc(N(CCCNc2ccnc3cc(Cl)ccc23)Cc2ccc3c(c2)OCO3)n1 | 0
* FC(F)(F)c1ccc(CNc2ccc(Cc3c[nH]c4ncc(Cl)cc34)cn2)cn1 | 0
* CC(C)c1cc(CNc2nc(Nc3cc(C4CC4)[nH]n3)cc(N3CCN(C)CC3)n2)on1 | 1
* Cc1cc(NCC(=O)Nc2ccc(-c3nc4ccccc4s3)cc2)no1 | 0

====

# Tested on: UACC-62 melanoma
# Assay remarks: NCI-60 one-dose screen, 48 h
# Settings: 10 µM unless noted
About 83,000 compounds went through this panel and 20% of them were active in at least one assay; those are over-represented in the sample as a whole. Calls of active or inactive are those of the source. Rule for the calls: active = growth percent below 10; inactive = the rest.
Possible outcomes: t (active), f (inactive)

* Cn1cc(-c2ccc(F)c(C(F)(F)F)c2)nc1C1CCN(c2ncnc3[nH]ncc23)CC1 | f
* O=C(Nc1ccc(-c2ccnc(Nc3ccc(N4CCOCC4)cc3)n2)cc1)[C@@H]1CCCN1 | f
* COc1ccc(COc2cc3oc(=O)c4cc(C(C)O)ccc4c3cc2OC)cc1 (configuration not stated) | f
* CSc1nc2ncnc(SC)c2[nH]1 | f
* COc1cc2nc(Nc3cccc(Cl)c3)nc(N)c2cc1OC | f
* COc1ccc(OC)c(NC2=C(SCCc3ccccc3)C(=O)c3ccccc3C2=O)c1 | f
* COc1cc2c(c(OC)c1)C1c3ccccc3NC(=O)N1CC2 (configuration not stated) | f
* CC1(COc2ccc3c(c2)ncn3-c2ccc3cccc(N4CCC(N)CC4)c3n2)COC1 | f
* COc1ccc(-c2cnc(-c3ccc(Cl)cc3)[nH]2)cc1OC | f
* Cc1nc(Nc2n[nH]c3c2CN(C(=O)N[C@H](CN(C)C)c2ccccc2)C3(C)C)c2sccc2n1 | t
* Cc1csc(-c2nnc(Nc3ccc(Oc4ncccc4-c4ccnc(N)n4)cc3)c3ccccc23)c1 | f
* COc1cc2ncnc(Nc3cccc(Cl)c3F)c2cc1OC(=O)N1CCN(C)C[C@H]1C | f
* N#CC1(C#N)C(c2cccs2)NC(c2cccs2)C1(C#N)C#N (configuration not stated) | f
* O=C1C=CC2(NN=C(c3ccccc3)N2c2cccc(Cl)c2)c2cccc(O)c21 (configuration not stated) | t
* COc1cc(Nc2ncc3c(n2)-c2ccc(Cl)cc2C(c2c(F)cccc2OC)=NC3)ccc1C(=O)O | f
* CCc1nc2cc(/C=C/C(=O)NO)ccc2c(=O)n1CCc1ccc(F)cc1 | t
* O=C1OCC2=C1C(c1cccc(F)c1)c1cc3c(cc1N2CCO)OCCO3 (configuration not stated) | f

====

# Tested on: SF-268 CNS
# Assay remarks: NCI-60 one-dose screen, 48 h (100 = growth as untreated, 0 = no growth, -100 = all killed)
# Settings: 10 µM unless noted
The panel holds about 83,000 compounds, 20% with a hit somewhere; the sample as a whole holds those more often.
Label Y for high-side growth (at or above 30%) and N for low-side growth (below it).

* CC(=O)OCCC/C(=C\c1ccc2ccccc2c1)[N+](=O)[O-] | N
* Cc1cc(-c2cc(O)ccc2Cl)cc2nnc(Nc3ccc(OCCN4CCCC4)cc3)nc12 | N
* CC(C)C1CCC(C)C(C2(C#N)C(N)=NC(N)=C2C#N)C1=O (stereo not drawn) | Y
* COc1cc(CCc2cc(NC(=O)c3ccc(N4C[C@@H](C)N[C@@H](C)C4)cc3)n[nH]2)cc(OC)c1 | Y
* CCCCN1C(=O)c2cccc3c(-c4ccc5c(c4)ncn5C4CCCCC4)ccc(c23)C1=O | Y
* CC(=O)O[C@]1(C)C[C@H](O)[C@]2(O)C=CO[C@H](O[C@@H]3O[C@H](CO)[C@@H](O)[C@H](O)[C@H]3O)[C@@H]21 | Y
* COc1cc(C(=O)NNC(=O)c2ccc(NC(=O)CCl)cc2)cc(OC)c1OC | Y
